System: C. rodentium AfuA (Citrobacter rodentium)
Construct: recombinant AfuA; construct details only in supplement
Sequence (D2TKU7 entry or part of it): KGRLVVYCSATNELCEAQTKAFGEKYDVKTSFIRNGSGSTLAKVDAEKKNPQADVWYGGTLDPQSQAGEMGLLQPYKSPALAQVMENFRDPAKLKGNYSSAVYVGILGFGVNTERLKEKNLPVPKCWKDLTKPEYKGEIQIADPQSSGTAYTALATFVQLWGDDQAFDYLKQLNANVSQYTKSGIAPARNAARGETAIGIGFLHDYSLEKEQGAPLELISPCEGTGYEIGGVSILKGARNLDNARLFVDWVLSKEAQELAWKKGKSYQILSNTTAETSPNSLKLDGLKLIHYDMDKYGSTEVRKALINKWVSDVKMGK
Protocol text: isothermal titration calorimetry
Condition info: 20 mM Tris pH 8, 100 mM NaCl
Endpoint name: Kd (nM)

Compound	System	Experimental value
O=P(O)(O)OC[C@H]1OC(O)[C@H](O)[C@@H](O)[C@@H]1O (stereo partly shown) [Glucose-6-phosphate]	C. rodentium AfuA (Citrobacter rodentium)	164

----------
System: AfuA (Actinobacillus pleuropneumoniae, UniProt A3N294, T177A)
Sequence (A3N294 28-346 T177A): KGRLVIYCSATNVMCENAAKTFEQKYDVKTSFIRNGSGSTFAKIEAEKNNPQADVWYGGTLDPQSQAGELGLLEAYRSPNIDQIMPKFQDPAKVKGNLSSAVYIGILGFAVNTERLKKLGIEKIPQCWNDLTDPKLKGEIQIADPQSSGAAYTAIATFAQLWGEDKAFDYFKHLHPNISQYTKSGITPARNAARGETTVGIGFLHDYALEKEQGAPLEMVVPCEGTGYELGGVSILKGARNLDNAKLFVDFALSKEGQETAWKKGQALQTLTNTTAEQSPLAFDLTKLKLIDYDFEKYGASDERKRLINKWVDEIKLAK
Condition info: 20 mM Tris pH 8, 100 mM NaCl
pKd: −log10 of the molar value.
Endpoint name: pKd

Compound	Experimental value
O=P(O)(O)OC[C@H]1OC(O)[C@H](O)[C@@H](O)[C@@H]1O (stereo partly shown) [Glucose-6-phosphate]	5.48

----------
System: AfuA (Actinobacillus pleuropneumoniae)
Construct: pET26b, periplasmic expression in E. coli (osmotic shock), N-terminal 6xHis tag cleaved by thrombin
Protocol text: isothermal titration calorimetry
Assay type: binding
Condition info: 20 mM Tris pH 8, 100 mM NaCl; read-out: Kd

Molecule	System	Kd (nM)
O=P(O)(O)OC[C@H]1OC(O)[C@H](O)[C@@H](O)[C@@H]1O (stereo partly drawn) [Glucose-6-phosphate]	AfuA (Actinobacillus pleuropneumoniae)	23
O=P(O)(O)OC[C@H]1OC(O)[C@@H](O)[C@@H](O)[C@@H]1O (stereo partly drawn) [Mannose-6-phosphate]	AfuA (Actinobacillus pleuropneumoniae)	960
O=P(O)(O)OC[C@H]1OC(O)(CO)[C@@H](O)[C@@H]1O (stereo partly drawn) [Fructose-6-phosphate]	AfuA (Actinobacillus pleuropneumoniae)	8

----------
System: AfuA (Actinobacillus pleuropneumoniae, UniProt A3N294, S64A)
Sequence (A3N294 28-346 S64A): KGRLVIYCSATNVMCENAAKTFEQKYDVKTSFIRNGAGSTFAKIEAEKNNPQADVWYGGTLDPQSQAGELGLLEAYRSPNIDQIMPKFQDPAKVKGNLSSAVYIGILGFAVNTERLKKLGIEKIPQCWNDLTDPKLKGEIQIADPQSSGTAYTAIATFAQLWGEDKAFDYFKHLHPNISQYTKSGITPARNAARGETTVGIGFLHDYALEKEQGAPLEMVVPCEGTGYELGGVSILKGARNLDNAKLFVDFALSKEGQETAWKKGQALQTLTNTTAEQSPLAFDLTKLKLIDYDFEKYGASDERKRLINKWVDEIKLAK
Condition info: 20 mM Tris pH 8, 100 mM NaCl
pKd: −log10 of the molar value.

Compound	pKd
O=P(O)(O)OC[C@H]1OC(O)[C@H](O)[C@@H](O)[C@@H]1O (stereo partly shown) [Glucose-6-phosphate]	6.05

From: paper PMC4546632
